Listed next: entries and their corresponding Z-AUC.
- assay.explanation: qHTS drug screen for cell cycle checkpoint inhibitors in PARPi-resistant BRCA-mutant ovarian cancer cell lines. (AID 1963452)
- settings: PEO1/OlaR viability, CellTiter-Glo luminescence, 96 h; measured here: PEO1 parental Z-AUC; stronger effect = lower value
readout: Z-AUC

1. COc1ccccc1C(=O)Nc1cc2c(cc1N1CCCCC1)n(C)c(=O)n2C 0.729
2. COC(=O)C1=C(C)NC(c2ncc(F)cc2F)=N[C@@H]1c1ccc(F)cc1Cl 1.02
3. C[C@@H](Oc1cc(C(=O)Nc2ccc(C(=O)N3CCN(C)CC3)cc2)nnc1N)c1c(Cl)ccc(F)c1Cl -1.08
4. COc1ccnc2[nH]cc(C(=O)C(=O)N3CCN(C(=O)c4ccccc4)C[C@H]3C)c12 1.05
5. CC1=C2[N-][C@H]([C@H](CC(N)=O)[C@@]2(C)CCC(=O)NC[C@@H](C)OP(=O)([O-])O[C@H]2[C@@H](O)[C@@H](n3cnc4cc(C)c(C)cc43)O[C@@H]2CO)[C@]2(C)N=C(C(C)=C3N=C(C=C4N=C1[C@@H](CCC(N)=O)C4(C)C)[C@@H](CCC(N)=O)[C@]3(C)CC(N)=O)[C@@H](CCC(N)=O)[C@]2(C)CC(N)=O.O.[Co+2] 0.932
6. Cc1cccc(/C=N/Nc2cc(N3CCOCC3)nc(OCCc3ccccn3)n2)c1 0.0151
7. CNS(=O)(=O)Nc1nccc(Cc2c(C)c3ccc(Oc4ncccn4)cc3oc2=O)c1F -1.08
